# Measurement notes: The total clearance after i.v. administration
# Assay type: ADME, organism-based
# Run parameters: rat, in vivo, iv
Recorded metric: clearance (mL/min/kg)
Your answer should be a plain number; it is taken to be in mL/min/kg.

These recorded examples may help you get a feel for the data.
CCCC[C@H](NC(=O)O[C@H](Cn1ccc(-c2ccc(C(F)(F)F)cc2)n1)C(C)(C)C)C(=O)C(=O)NCc1ccno1 :: 3.2
CCCC[C@H](NC(=O)O[C@H](CN1CCN(c2ccc(C(F)(F)F)cc2)C1=O)C(C)(C)C)C(=O)C(=O)Nc1ccn[nH]1 :: 55
CCCC[C@H](NC(=O)OC(Cc1nnc(-c2ccc(F)cc2)o1)C(C)(C)C)C(=O)C(=O)N[C@H]1CCCNC1=O (some centres undefined) :: 35

Continue with the next molecule.
The molecule CCCC[C@H](NC(=O)O[C@H](Cn1cnc(-c2ccc(C(F)(F)F)cc2)c1)C(C)(C)C)C(=O)C(=O)Nc1ccn[nH]1 showed clearance equal to 15

* * *

half-life overview
# Measurement notes: Terminal half-life dosed as a solution in male Han Wistar rat administered i.v.
# Type: ADME, organism-based
# Run parameters: male, Han Wistar, in vivo, iv
State the value with its unit after it.

Past entries and their recorded results:
CCCC[C@H](NC(=O)O[C@H](Cn1ccc(-c2ccc(C(F)(F)F)cc2)n1)C(C)(C)C)C(=O)C(=O)Nc1ccccn1 :: 3.5 h
CCCC[C@H](NC(=O)O[C@H](CN1CCN(c2ccc(C(F)(F)F)cc2)C1=O)C(C)(C)C)C(=O)C(=O)Nc1ccn[nH]1 :: 5.67 h
CCCC[C@H](NC(=O)O[C@H](Cc1nnc(-c2ccc(C(F)(F)F)cc2)o1)C(C)(C)C)C(=O)C(=O)NN1CCOC1=O :: 6.83 h
CCCC[C@H](NC(=O)O[C@H](Cn1cnc(-c2ccc(C(F)(F)F)cc2)c1)C(C)(C)C)C(=O)C(=O)Nc1nccs1 :: 4.67 h
CCCC[C@H](NC(=O)O[C@H](Cn1cnc(-c2ccc(C(F)(F)F)cc2)c1)C(C)(C)C)C(=O)C(=O)Nc1ccn[nH]1 :: 7.67 h
CCCC[C@H](NC(=O)O[C@H](Cc1nnc(-c2ccc(F)cc2)o1)C(C)(C)C)C(=O)C(=O)NCc1cccnc1 :: 3.83 h
CCCC[C@H](NC(=O)O[C@H](Cc1nnc(-c2ccc(F)cc2)o1)C(C)(C)C)C(=O)C(=O)Nc1ccn[nH]1 :: 2.5 h
CCCC[C@H](NC(=O)OC(Cc1nnc(-c2ccc(F)cc2)o1)C(C)(C)C)C(=O)C(=O)N[C@H]1CCCNC1=O (stereo partly specified) :: 2.33 h

Per the records, this compound ( CCCC[C@H](NC(=O)O[C@H](Cn1cc(-c2ccc(C(F)(F)F)cc2)cn1)C(C)(C)C)C(=O)C(=O)Nc1ccn[nH]1 ) has half-life equal to 5.67 h

Per the records, this compound ( CCCC[C@H](NC(=O)O[C@H](Cn1ccc(-c2ccc(C(F)(F)F)cc2)n1)C(C)(C)C)C(=O)C(=O)NCc1ccno1 ) has half-life equal to 6.67 h

For record CCCC[C@H](NC(=O)O[C@H](Cc1nnc(-c2ccc(C(F)(F)F)cc2)o1)C(C)(C)C)C(=O)C(=O)Nc1ccn[nH]1 the listed half-life is 8.83 h
